Target: T1, gp100 (human)
T1 construct: cell surface;cell surface complex; also called HLA-A2 / gp100 peptide complex on T2 cells
Test: flow cytometry on peptide-pulsed T2 cells, scFv 100 nM
Hi, to clarify the labels: yes (1) covers standardized gMFI from 0.4 upward, no (0) covers anything below 0.4.

binder	class_name
NYA-1154 (scFv) scFv: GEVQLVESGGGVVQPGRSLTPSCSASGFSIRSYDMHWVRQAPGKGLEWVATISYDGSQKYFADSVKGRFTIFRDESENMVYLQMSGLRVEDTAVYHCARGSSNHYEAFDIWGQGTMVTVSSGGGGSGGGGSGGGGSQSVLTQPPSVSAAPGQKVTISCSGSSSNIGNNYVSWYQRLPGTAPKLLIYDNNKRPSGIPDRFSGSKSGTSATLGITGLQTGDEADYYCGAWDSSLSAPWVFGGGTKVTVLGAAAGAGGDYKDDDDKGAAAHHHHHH	yes (1)
NYA-2143 (scFv) scFv: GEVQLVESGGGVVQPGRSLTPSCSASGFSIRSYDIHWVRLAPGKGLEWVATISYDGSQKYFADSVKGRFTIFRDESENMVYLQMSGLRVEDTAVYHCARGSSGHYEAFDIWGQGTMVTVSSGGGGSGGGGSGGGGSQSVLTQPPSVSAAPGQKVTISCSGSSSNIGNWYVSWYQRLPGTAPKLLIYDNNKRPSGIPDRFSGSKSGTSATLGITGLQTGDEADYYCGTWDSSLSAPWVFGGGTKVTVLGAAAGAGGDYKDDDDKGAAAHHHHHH	no (0)

Moving on to another binder below.
Can NYC-0004 (scFv, not shown: small tags and cut ends, also called T1 scFv; NYC-0004 tag adduct) scFv: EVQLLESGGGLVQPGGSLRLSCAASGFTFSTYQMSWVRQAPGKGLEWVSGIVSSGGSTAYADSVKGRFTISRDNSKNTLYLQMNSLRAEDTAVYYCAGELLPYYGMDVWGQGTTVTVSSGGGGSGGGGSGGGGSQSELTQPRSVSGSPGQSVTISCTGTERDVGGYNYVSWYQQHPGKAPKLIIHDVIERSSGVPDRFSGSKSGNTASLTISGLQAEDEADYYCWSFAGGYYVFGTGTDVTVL be said to have standardized gMFI at or above 0.4?
no (0)
